Measured activation at 0.1 µM accompanies every entry in the list below.
SUBJECT OF TEST: glucocerebrosidase (Gcase) (Homo sapiens, UniProt P04062)
Construct: micellar solution containing 10 nM GCase and 100 nM saposin C
Sequence (P04062 40-536): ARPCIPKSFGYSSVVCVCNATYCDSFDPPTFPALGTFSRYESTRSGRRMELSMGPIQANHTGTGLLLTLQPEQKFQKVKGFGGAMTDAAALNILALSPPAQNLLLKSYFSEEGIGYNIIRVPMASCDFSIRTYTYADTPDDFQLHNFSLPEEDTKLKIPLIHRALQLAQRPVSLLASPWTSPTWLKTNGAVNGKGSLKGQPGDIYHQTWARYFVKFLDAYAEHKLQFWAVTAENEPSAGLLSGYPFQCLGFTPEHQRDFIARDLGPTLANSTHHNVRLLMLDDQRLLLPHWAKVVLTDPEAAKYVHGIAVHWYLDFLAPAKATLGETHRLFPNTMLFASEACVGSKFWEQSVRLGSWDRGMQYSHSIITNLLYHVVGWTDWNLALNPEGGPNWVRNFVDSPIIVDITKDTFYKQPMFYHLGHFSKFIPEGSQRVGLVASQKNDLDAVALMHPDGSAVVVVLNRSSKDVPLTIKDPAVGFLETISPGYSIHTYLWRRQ
PROTOCOL TEXT: Glucocerebrosidase (Gcase) activation assay, 4-methylumbelliferyl-beta-D-glucopyranoside substrate, with saposin C
Type: biochemical
MEASUREMENT CONTEXT: 0.25 h; read-out: Percent Gcase Activation 0.1 μM Test Compound

// below: answered compounds
Look up and report measured activation at 0.1 µM (glucocerebrosidase (Gcase) (Homo sapiens, UniProt P04062)) for the following compound: Cc1cc(-c2c(F)cccc2C#N)nn2c(C(=O)N[C@@H](C)C(F)(F)F)cnc12 5 to 20%

Look up and report measured activation at 0.1 µM (glucocerebrosidase (Gcase) (Homo sapiens, UniProt P04062)) for the following compound: Cc1cc(-c2cccc(F)c2C#N)nn2c(C(=O)N[C@@H](C)C(F)(F)F)cnc12 5 to 20%

Look up and report measured activation at 0.1 µM (glucocerebrosidase (Gcase) (Homo sapiens, UniProt P04062)) for the following compound: Cc1cc(-c2ccc3ncn(C)c3c2)nn2c(C(=O)N[C@@H](C3CC3)C(F)(F)F)cnc12 5 to 20%

Look up and report measured activation at 0.1 µM (glucocerebrosidase (Gcase) (Homo sapiens, UniProt P04062)) for the following compound: Cc1cc(-c2ccon2)nn2c(C(=O)NC(C3CC3)C(F)(F)F)cnc12 (stereo not shown) 5 to 20%

Look up and report measured activation at 0.1 µM (glucocerebrosidase (Gcase) (Homo sapiens, UniProt P04062)) for the following compound: Cc1cc(C)c2snc(C(=O)Nc3ccc4c(c3)CCC4)c2n1 > 20%

Look up and report measured activation at 0.1 µM (glucocerebrosidase (Gcase) (Homo sapiens, UniProt P04062)) for the following compound: COc1cncc(-c2cc(C)c3ncc(C(=O)N[C@H](C4CC4)C(F)(F)F)n3n2)c1 5 to 20%

Continuing:
Look up and report measured activation at 0.1 µM (glucocerebrosidase (Gcase) (Homo sapiens, UniProt P04062)) for the following compound: Cc1cc(-c2ccc(F)cc2C#N)nn2c(C(=O)NC(C)C(F)(F)F)cnc12 (stereo not shown) 5 to 20%

Look up and report measured activation at 0.1 µM (glucocerebrosidase (Gcase) (Homo sapiens, UniProt P04062)) for the following compound: CCC(NC(=O)c1cnc2cc(C)c(Cl)nn12)c1ccccc1 (stereo not shown) < 5%

Look up and report measured activation at 0.1 µM (glucocerebrosidase (Gcase) (Homo sapiens, UniProt P04062)) for the following compound: CCC(NC(=O)c1ncc2c(C)cc(C)nn12)c1ccccc1 (stereo not shown) < 5%

Look up and report measured activation at 0.1 µM (glucocerebrosidase (Gcase) (Homo sapiens, UniProt P04062)) for the following compound: Cc1cc(-c2cccc(F)c2)nn2c(C(=O)NC(C)(C)C3CC3)ncc12 > 20%

----------
Measured activation at 1 µM accompanies every entry in the list below.
SUBJECT OF TEST: glucocerebrosidase (Gcase) (Homo sapiens, UniProt P04062)
Construct: micellar solution containing 10 nM GCase and 100 nM saposin C
PROTOCOL TEXT: Glucocerebrosidase (Gcase) activation assay, 4-methylumbelliferyl-beta-D-glucopyranoside substrate, with saposin C
Type: biochemical
MEASUREMENT CONTEXT: 0.25 h; read-out: Percent Gcase Activation 1 μM Test Compound

// below: answered molecules
Give activation at 1 µM for Cc1cc(-c2cccnc2)nc2c(C(=O)NC(C3CC3)C(F)(F)F)csc12 (centres unmarked) > 20%

Give activation at 1 µM for C#Cc1ccc(NC(=O)c2cnc3ccc(Cl)nn23)cc1 5 to 20%

Give activation at 1 µM for Cc1cc(-c2cccnc2F)nn2c(C(=O)NC(C3CC3)C(F)(F)F)cnc12 (centres unmarked) > 20%

Give activation at 1 µM for Cc1cc(N2CC(C(C)C)OC2=O)nn2c(C(=O)N[C@H](C3CC3)C(F)(F)F)cnc12 (some centres unmarked) > 20%

Continuing:
Give activation at 1 µM for Cc1cc(-c2ccc3ncn(C)c3c2)nn2c(C(=O)N[C@@H](C3CC3)C(F)(F)F)cnc12 > 20%

----------
SUBJECT OF TEST: glucocerebrosidase (Gcase) (Homo sapiens, UniProt P04062)
Construct: micellar solution containing 10 nM GCase and 100 nM saposin C
PROTOCOL TEXT: Glucocerebrosidase (Gcase) activation assay, 4-methylumbelliferyl-beta-D-glucopyranoside substrate, with saposin C
Assay type: biochemical
MEASUREMENT CONTEXT: 0.25 h; read-out: Percent Gcase Activation 1 μM Test Compound
MEASURE NAME: activation at 1 µM

Look up and report measured activation at 1 µM (glucocerebrosidase (Gcase) (Homo sapiens, UniProt P04062)) for the following compound: CCCCCO[C@H]1CC[C@H](NC(=O)c2cnc3c(C)cc(C)nn23)CC1 > 20%

Look up and report measured activation at 1 µM (glucocerebrosidase (Gcase) (Homo sapiens, UniProt P04062)) for the following compound: Cc1cc(-c2ccc3ncn(C)c3c2)nn2c(C(=O)N[C@H](C3CC3)C(F)(F)F)cnc12 > 20%

Look up and report measured activation at 1 µM (glucocerebrosidase (Gcase) (Homo sapiens, UniProt P04062)) for the following compound: Cc1cc2ncc(C(=O)Nc3ccc4c(c3)CCC4)n2nc1Cl 5 to 20%

Look up and report measured activation at 1 µM (glucocerebrosidase (Gcase) (Homo sapiens, UniProt P04062)) for the following compound: Cc1cc(-c2cccc3ocnc23)nc2c(C(=O)NC(C3CC3)C(F)(F)F)nsc12 (stereo not shown) 5 to 20%

Look up and report measured activation at 1 µM (glucocerebrosidase (Gcase) (Homo sapiens, UniProt P04062)) for the following compound: Cc1cc(-c2ccccn2)nc2c(C(=O)NC(C3CC3)C(F)(F)F)nsc12 (stereo not shown) 5 to 20%

Look up and report measured activation at 1 µM (glucocerebrosidase (Gcase) (Homo sapiens, UniProt P04062)) for the following compound: Cc1cc(-c2cccc(Cl)n2)nn2c(C(=O)NC(C)C(F)(F)F)cnc12 (stereo not shown) > 20%

Look up and report measured activation at 1 µM (glucocerebrosidase (Gcase) (Homo sapiens, UniProt P04062)) for the following compound: Cc1cc(N2CCN(C(C)C)C2=O)nn2c(C(=O)NC(C3CC3)C(F)(F)F)cnc12 (stereo not shown) > 20%

Look up and report measured activation at 1 µM (glucocerebrosidase (Gcase) (Homo sapiens, UniProt P04062)) for the following compound: Cc1cc(-c2sccc2C#N)nn2c(C(=O)N[C@H](C3CC3)C(F)(F)F)cnc12 > 20%

Look up and report measured activation at 1 µM (glucocerebrosidase (Gcase) (Homo sapiens, UniProt P04062)) for the following compound: Cc1cc(-c2cccc(F)c2)nn2c(C(=O)NC(C)C(F)(F)F)cnc12 (stereo not shown) > 20%

Look up and report measured activation at 1 µM (glucocerebrosidase (Gcase) (Homo sapiens, UniProt P04062)) for the following compound: COc1cccc(-c2cc(C)c3snc(C(=O)N[C@@H](C)C4CC4)c3n2)n1 5 to 20%

----------
SUBJECT OF TEST: glucocerebrosidase (Gcase) (Homo sapiens)
Construct: micellar solution containing 10 nM GCase and 100 nM saposin C
PROTOCOL TEXT: Glucocerebrosidase (Gcase) activation assay, 4-methylumbelliferyl-beta-D-glucopyranoside substrate, with saposin C
Assay type: biochemical
MEASUREMENT CONTEXT: 0.25 h; read-out: Percent Gcase Activation 0.1 μM Test Compound
Method: The ability of exemplary compounds to activate glucocerebrosidase (Gcase) was measured. A 484 μL aliquot of a 1.0 mg/mL solution of phosphatidylserine (PS) (Sigma P7769) in chloroform was evaporated under a stream of nitrogen for 1 hour. The lipid film was dissolved over 4 minutes of vigorous vortexing in 40 mL of 176 mM K2HPO4/50 mM citric acid (pH 4.7) containing 7.5 μL of triton X-100, resulting in a mixed micellar preparation with a composition of 0.32 mM triton and 0.37 mol % PS. […]
Measured activation at 0.1 µM accompanies every entry in the list below.

Give activation at 0.1 µM for Cc1cc(C)c2scc(C(=O)NC(C)(C)C3CC3)c2n1 > 20%

Give activation at 0.1 µM for Cc1cc(-c2ccc3ocnc3c2)nn2c(C(=O)NC(C)C3CC3)cnc12 (stereo not shown) > 20%

Give activation at 0.1 µM for Cc1cc(-c2ccc(F)cc2C#N)nn2c(C(=O)N[C@@H](C)C3CC3)cnc12 5 to 20%

Continuing:
Give activation at 0.1 µM for Cc1cc(-c2cncc(Cl)c2)nn2c(C(=O)N[C@@H](C3CC3)C(F)(F)F)cnc12 > 20%

Give activation at 0.1 µM for Cc1cc(C)c2onc(C(=O)Nc3ccc4c(c3)CCC4)c2n1 5 to 20%

Give activation at 0.1 µM for Cc1cc(N2CCN(C(C)C)C2=O)nn2c(C(=O)N[C@@H](C3CC3)C(F)(F)F)ncc12 5 to 20%

Give activation at 0.1 µM for Cc1cc2ncc(C(=O)Nc3ccc4c(c3)CCC4)n2nc1Cl < 5%

Give activation at 0.1 µM for Cc1cc(C#N)c(-c2cc(C)c3ncc(C(=O)N[C@@H](C)C4CC4)n3n2)o1 > 20%

Give activation at 0.1 µM for Cc1cc(-c2ccc3ocnc3c2)nn2c(C(=O)NC(C3CC3)C(F)(F)F)cnc12 (stereo not shown) > 20%

Give activation at 0.1 µM for Cc1cc(-c2cccnc2)nn2c(C(=O)NC(C3CC3)C(F)(F)F)cnc12 (stereo not shown) < 5%
